Data provenance: patent US20190016825A1

# EC50 annotations
target: T1, PCSK9-BP15-His6 (human, UniProt Q8NBP7 31-692, biotin on the BP15 biotin receiving peptide); experiment: ELISA, bio-WT-PCSK9 captured on streptavidin plate
T1 construct: It holds a signal peptide (underlined in print); also called WT PCSK9; bio-WT-PCSK9
Give a bare numeral; the unit µg/mL is implied.

binder="h001-9 (antibody, human IgG1, V domains shown, Variable regions only; also called h001_VH.1B + h001_VL.1) VH: QVQLVQSGAEVKKPGASVKVSCKASGYTFTDYWMHWVRQAPGQGLEWMGYINPSSGFTKYHQNFKDRVTMTRDTSISTAYMELSRLTSDDTAVYYCARQYDYDEDWYFDVWGQGTTVTVSS VL: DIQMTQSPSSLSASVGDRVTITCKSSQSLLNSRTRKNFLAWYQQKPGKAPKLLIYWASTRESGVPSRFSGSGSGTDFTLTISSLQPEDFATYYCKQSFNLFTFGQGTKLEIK" numeric_value=0.0136

Now take the following binder into account.
Report EC50, nothing else, for this binder: h001-15 (antibody, human IgG1, V domains shown, Variable regions only; also called h001_VH.1C + h001_VL.1B) VH: QVQLVQSGAEVKKPGASVKVSCKASGYTFNDYWMHWVRQAPGQGLEWMGYINPSSGFTKYHQNFKDRVTMTRDTSISTAYMELSRLTSDDTAVYYCARQYDYDEDWYFDVWGQGTTVTVSS VL: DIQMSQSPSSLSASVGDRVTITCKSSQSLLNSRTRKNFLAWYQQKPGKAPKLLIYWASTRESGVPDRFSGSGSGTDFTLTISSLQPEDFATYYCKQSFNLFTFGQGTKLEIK 0.011
